system-name: High affinity nerve growth factor receptor (Homo sapiens, UniProt P04629)
Sequence (P04629 whole entry): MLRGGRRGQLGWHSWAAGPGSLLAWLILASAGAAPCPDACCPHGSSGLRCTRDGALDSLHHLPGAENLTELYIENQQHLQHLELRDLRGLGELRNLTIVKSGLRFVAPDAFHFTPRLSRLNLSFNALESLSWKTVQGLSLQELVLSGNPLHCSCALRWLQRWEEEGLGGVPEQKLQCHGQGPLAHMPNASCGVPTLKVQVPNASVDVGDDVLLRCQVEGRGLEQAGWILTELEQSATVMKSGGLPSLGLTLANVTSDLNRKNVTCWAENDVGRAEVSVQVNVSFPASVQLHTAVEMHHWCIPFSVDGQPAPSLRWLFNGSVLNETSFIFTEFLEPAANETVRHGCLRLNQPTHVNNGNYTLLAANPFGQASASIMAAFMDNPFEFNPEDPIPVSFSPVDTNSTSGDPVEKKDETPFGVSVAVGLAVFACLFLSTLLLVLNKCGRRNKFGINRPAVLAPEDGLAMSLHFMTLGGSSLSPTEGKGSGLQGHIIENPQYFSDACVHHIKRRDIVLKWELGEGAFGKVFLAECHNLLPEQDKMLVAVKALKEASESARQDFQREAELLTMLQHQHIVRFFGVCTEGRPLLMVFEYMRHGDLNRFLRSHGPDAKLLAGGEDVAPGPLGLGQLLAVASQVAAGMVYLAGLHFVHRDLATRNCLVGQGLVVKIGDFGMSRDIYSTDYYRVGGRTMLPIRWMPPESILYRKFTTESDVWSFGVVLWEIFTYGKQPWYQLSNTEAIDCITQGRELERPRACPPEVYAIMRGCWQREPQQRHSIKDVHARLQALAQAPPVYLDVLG
measured-parameter: pKd
Answers are plain numbers, as −log10 of the molar value.

# record-smiles, pKd
records = [
    ("Nc1cccc(-c2cnc3[nH]cc(-c4ccccc4)c3c2)c1", 7.06),
]

Then this compound:
Req: API: value(readout= pKd, system= High affinity nerve growth factor receptor (Homo sapiens, UniProt P04629), query= "COc1ccc(-c2c[nH]c3ncc(-c4cncc(NS(=O)(=O)c5ccccc5)c4)cc23)cc1OC" )
Resp: 6.84

* * *

system-name: Phosphatidylinositol 4,5-bisphosphate 3-kinase catalytic subunit alpha isoform (Homo sapiens)
Sequence (P42336 whole entry, canonical isoform): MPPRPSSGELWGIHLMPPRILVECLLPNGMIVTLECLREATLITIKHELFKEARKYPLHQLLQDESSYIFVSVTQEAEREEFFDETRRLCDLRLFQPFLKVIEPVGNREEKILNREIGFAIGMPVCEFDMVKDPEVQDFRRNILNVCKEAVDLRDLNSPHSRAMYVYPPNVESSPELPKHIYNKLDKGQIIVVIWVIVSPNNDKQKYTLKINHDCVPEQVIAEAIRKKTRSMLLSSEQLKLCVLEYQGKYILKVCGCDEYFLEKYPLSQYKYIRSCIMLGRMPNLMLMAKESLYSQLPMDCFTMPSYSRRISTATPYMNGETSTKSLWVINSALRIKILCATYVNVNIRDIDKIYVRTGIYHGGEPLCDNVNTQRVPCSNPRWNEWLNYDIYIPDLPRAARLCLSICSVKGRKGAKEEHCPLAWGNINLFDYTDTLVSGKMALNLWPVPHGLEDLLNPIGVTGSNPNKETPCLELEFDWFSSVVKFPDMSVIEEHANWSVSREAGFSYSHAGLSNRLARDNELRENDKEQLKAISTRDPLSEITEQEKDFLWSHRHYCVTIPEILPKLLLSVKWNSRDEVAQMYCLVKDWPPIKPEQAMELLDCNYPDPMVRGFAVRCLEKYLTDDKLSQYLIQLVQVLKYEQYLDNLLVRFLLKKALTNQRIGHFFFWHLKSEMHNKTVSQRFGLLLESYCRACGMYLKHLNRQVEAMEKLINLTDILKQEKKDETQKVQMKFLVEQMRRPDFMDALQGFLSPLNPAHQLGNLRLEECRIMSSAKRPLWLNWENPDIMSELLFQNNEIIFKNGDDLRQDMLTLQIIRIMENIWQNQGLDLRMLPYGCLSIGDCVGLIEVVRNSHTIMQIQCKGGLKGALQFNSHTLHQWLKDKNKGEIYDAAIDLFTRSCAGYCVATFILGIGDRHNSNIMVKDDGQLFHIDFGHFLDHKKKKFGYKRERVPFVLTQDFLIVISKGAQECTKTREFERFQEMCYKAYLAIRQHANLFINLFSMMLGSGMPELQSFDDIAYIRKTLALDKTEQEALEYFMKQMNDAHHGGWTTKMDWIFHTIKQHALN
protocol-description: Binding affinity to PI3Kalpha at 10 uM by high throughput binding assay relative to control
Activity vs 60%: at or above is Fulfilled, below is Not fulfilled.

Past entries and their recorded results:
# record-smiles, assigned-label
measured = [
    ("N#Cc1cccc(-c2c[nH]c3ncc(-c4cccc(N)c4)cc23)c1", "Fulfilled"),
    ("Nc1cccc(-c2cnc3[nH]cc(-c4cccnc4)c3c2)c1", "Not fulfilled"),
    ("Nc1cccc(-c2cnc3[nH]cc(-c4ccccc4)c3c2)c1", "Fulfilled"),
    ("CS(=O)(=O)Nc1cccc(-c2c[nH]c3ncc(-c4cncc(NS(=O)(=O)c5ccccc5)c4)cc23)c1", "Not fulfilled"),
    ("N#Cc1cccc(-c2cnc3[nH]cc(-c4cccc(N)c4)c3c2)c1", "Not fulfilled"),
    ("COc1ccc(-c2c[nH]c3ncc(-c4cccc(C#N)c4)cc23)cc1OC", "Fulfilled"),
]

Req: In plain terms: is recorded Activity at least 60% for "COc1ccc(-c2c[nH]c3ncc(-c4cncc(NS(=O)(=O)c5ccccc5)c4)cc23)cc1OC" ?
Resp: Not fulfilled

Req: Item "COc1ccc(-c2c[nH]c3ncc(-c4cncc(N)c4)cc23)cc1OC" with Activity of 60% or above?
Resp: Not fulfilled

Req: Decide: Activity of "Nc1cccc(-c2cnc3[nH]cc(-c4ccncc4)c3c2)c1" >= 60%?
Resp: Not fulfilled

Req: Answer whether Activity of "COc1ccc(-c2c[nH]c3ncc(-c4cccc(NS(=O)(=O)c5ccccc5)c4)cc23)cc1OC" is greater than or equal to 60%.
Resp: Not fulfilled
